experimental-system: CYP1A2 (Homo sapiens, UniProt P05177)
Sequence (P05177 1-516): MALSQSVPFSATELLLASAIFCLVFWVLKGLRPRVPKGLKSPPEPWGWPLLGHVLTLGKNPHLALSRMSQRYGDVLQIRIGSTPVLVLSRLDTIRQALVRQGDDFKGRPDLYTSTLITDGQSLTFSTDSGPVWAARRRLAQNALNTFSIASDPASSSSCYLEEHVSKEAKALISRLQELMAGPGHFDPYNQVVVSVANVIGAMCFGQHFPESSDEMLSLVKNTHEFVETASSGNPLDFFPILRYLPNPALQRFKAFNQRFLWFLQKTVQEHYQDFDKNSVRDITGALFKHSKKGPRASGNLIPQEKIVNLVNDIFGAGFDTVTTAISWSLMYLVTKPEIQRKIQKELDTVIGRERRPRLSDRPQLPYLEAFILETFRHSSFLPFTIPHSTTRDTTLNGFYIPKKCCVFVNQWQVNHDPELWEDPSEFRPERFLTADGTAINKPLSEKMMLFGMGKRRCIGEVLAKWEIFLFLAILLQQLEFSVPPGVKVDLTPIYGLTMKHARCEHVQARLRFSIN
test-protocol: CYP inhibition, LC–MS/MS assay in human liver microsomes
assay-setup: human, human liver microsomes, probe phenacetin
measured-quantity: inhibition at 10 µM

Sample `COc1cccc(-c2n[nH]c(SCc3ccccn3)n2)c1OC` ; inhibition at 10 µM observed: 43%

All values here come from paper PMC5615911.
